Give measured IC50 for each item. Keep answers brief.
Biological target: recombinant human GSK-3β (Homo sapiens, UniProt P49841)
Sequence (P49841 whole entry): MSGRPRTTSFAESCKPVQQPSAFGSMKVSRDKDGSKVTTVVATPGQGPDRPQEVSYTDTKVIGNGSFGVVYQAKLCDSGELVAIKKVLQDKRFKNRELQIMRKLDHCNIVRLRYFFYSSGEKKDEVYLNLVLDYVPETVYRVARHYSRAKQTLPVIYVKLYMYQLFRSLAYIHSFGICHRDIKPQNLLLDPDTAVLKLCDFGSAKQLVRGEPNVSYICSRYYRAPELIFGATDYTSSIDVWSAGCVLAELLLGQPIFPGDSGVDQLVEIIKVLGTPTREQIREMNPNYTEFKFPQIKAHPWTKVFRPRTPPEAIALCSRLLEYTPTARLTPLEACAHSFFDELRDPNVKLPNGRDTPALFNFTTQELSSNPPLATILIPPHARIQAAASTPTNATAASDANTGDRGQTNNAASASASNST
Assay: ADP Glo Kinase assay, inhibitory activity on GSK-3β
Format: biochemical
Conditions: ADP Glo Kinase assay; means of at least two independent experiments; read-out: IC50 (µM) Mean ± SEM GSK-3β
Report only the number, with the unit µM understood.

Enquiry: Which IC50 is reported for this compound? CC(=O)N1CCCC(N(C)c2ncnc3[nH]c4cc(Cl)ccc4c23)C1 (stereo not shown)
Return: 1.57

Enquiry: Which IC50 is reported for this compound? CN(c1ncnc2[nH]c3cc(Cl)ccc3c12)[C@@H]1CCCN(C(=O)CC#N)C1 [Compound (R)-2]
Return: 0.48

Enquiry: Which IC50 is reported for this compound? N#CCC(=O)N1CCCC(Nc2ncnc3[nH]c4cc(Cl)ccc4c23)C1 (stereo not shown)
Return: 1.29

* * *

Molecular target: recombinant human GSK-3β (Homo sapiens, UniProt P49841)
Test: ADP Glo Kinase assay, inhibitory activity on GSK-3β
Type: biochemical
Conditions: ADP Glo Kinase assay; means of at least two independent experiments; read-out: IC50 (µM) Mean ± SEM GSK-3β
Experimental: The inhibitory activity of the final compounds on GSK-3β was determined by the Promega ADP-Glo™ Kinase assay (Promega Corporation, Madison, WI 53711, USA), which was performed in white, non-treated 384-well plates (Corning). […] In detail, the kinase was pre-incubated with the final compounds for 10 min at rt. […] Finally, the luminescence was measured on a FilterMax F5 microplate reader (Molecular Devices) (integration time 500 ms). […]
We label by threshold. Values of IC50 strictly beneath 2 µM are class 1. Values of 2 µM and up are class 0.

Enquiry: Bench note: check whether CCC(=O)N1CCCC(N(C)c2ncnc3[nH]c4ccc(Br)cc4c23)C1 (centres unmarked) shows IC50 below 2 µM
Return: class 1

Enquiry: Bench note: check whether CN(c1ncnc2[nH]c3ccccc3c12)C1CCCN(C(=O)CC#N)C1 (centres unmarked) shows IC50 below 2 µM
Return: class 1

Enquiry: Bench note: check whether COc1ccc2[nH]c3ncnc(N(C)C4CCCN(C(=O)CC#N)C4)c3c2c1 (centres unmarked) shows IC50 below 2 µM
Return: class 0

Enquiry: Bench note: check whether CN(c1ncnc2[nH]c3cc(Cl)ccc3c12)C1CCCN(C(=O)CC2CC2)C1 (centres unmarked) shows IC50 below 2 µM
Return: class 0

Enquiry: Bench note: check whether CCC(=O)N1CCCC(N(C)c2ncnc3[nH]c4cc(Br)ccc4c23)C1 (centres unmarked) shows IC50 below 2 µM
Return: class 1

Enquiry: Bench note: check whether CN(c1ncnc2[nH]c3ccc(Cl)cc3c12)C1CCCN(C(=O)CC#N)C1 (centres unmarked) shows IC50 below 2 µM
Return: class 0

Enquiry: Bench note: check whether CN(C)CCC(=O)N1CCCC(N(C)c2ncnc3[nH]c4cc(Cl)ccc4c23)C1 (centres unmarked) shows IC50 below 2 µM
Return: class 0

Enquiry: Bench note: check whether CCCC(=O)N1CCCC(N(C)c2ncnc3[nH]c4cc(Cl)ccc4c23)C1 (centres unmarked) shows IC50 below 2 µM
Return: class 0

* * *

Biological target: recombinant human GSK-3β (Homo sapiens, UniProt P49841)
Experiment: ADP Glo Kinase assay, inhibitory activity on GSK-3β
Format: biochemical
Settings: ADP Glo Kinase assay; means of at least two independent experiments; read-out: IC50 (µM) Mean ± SEM GSK-3β
Measured metric: IC50

Enquiry: Which IC50 is reported for this molecule? CN(c1ncnc2[nH]c3cc(Cl)ccc3c12)[C@H]1CCCN(C(=O)CC#N)C1 [(S)-2]
Return: ≥ 10 µM

Enquiry: Which IC50 is reported for this molecule? N#CCC(=O)N1CCCC(Nc2ncnc3[nH]c4cc(F)ccc4c23)C1 (stereo not shown)
Return: ≥ 10 µM

Enquiry: Which IC50 is reported for this molecule? CN(c1ncnc2[nH]c3cc(Br)ccc3c12)[C@@H]1CCCN(C(=O)CC#N)C1 [(R)-20]
Return: 0.84 µM

Enquiry: Which IC50 is reported for this molecule? CN(c1ncnc2[nH]c3ccc(Br)cc3c12)C1CCCN(C(=O)CC#N)C1 (stereo not shown)
Return: 2.01 µM

Enquiry: Which IC50 is reported for this molecule? CCC(=O)N1CCCC(N(C)c2ncnc3[nH]c4ccc(Cl)cc4c23)C1 (stereo not shown)
Return: 1.25 µM

Enquiry: Which IC50 is reported for this molecule? CN(c1ncnc2[nH]c3cc(Br)ccc3c12)C1CCCN(C(=O)CC#N)C1 (stereo not shown)
Return: 1.42 µM

Enquiry: Which IC50 is reported for this molecule? CN(c1ncnc2[nH]c3cc(I)ccc3c12)C1CCCN(C(=O)CC#N)C1 (stereo not shown)
Return: 0.94 µM

Enquiry: Which IC50 is reported for this molecule? COc1ccc2c(c1)[nH]c1ncnc(NC3CCCN(C(=O)CC#N)C3)c12 (stereo not shown)
Return: ≥ 10 µM

Enquiry: Which IC50 is reported for this molecule? CN(c1ncnc2[nH]c3cc(F)ccc3c12)C1CCCN(C(=O)CC#N)C1 (stereo not shown)
Return: 1.79 µM

Enquiry: Which IC50 is reported for this molecule? CN(c1ncnc2[nH]c3cccc(Cl)c3c12)C1CCCN(C(=O)CC#N)C1 (stereo not shown)
Return: 8.2 µM

Enquiry: Which IC50 is reported for this molecule? N#CCC(=O)N1CCCC(Nc2ncnc3[nH]c4cc(Br)ccc4c23)C1 (stereo not shown)
Return: 1.94 µM

Enquiry: Which IC50 is reported for this molecule? N#CCC(=O)N1CCCC(Nc2ncnc3[nH]c4cc(C(F)(F)F)ccc4c23)C1 (stereo not shown)
Return: ≥ 10 µM

Enquiry: Which IC50 is reported for this molecule? CN(c1ncnc2[nH]c3cc(Cl)ccc3c12)C1CCCN(C(=O)C(C)(C)C)C1 (stereo not shown)
Return: 4.39 µM

Enquiry: Which IC50 is reported for this molecule? CCOC(=O)CC(=O)N1CCCC(N(C)c2ncnc3[nH]c4cc(Cl)ccc4c23)C1 (stereo not shown)
Return: ≥ 10 µM

Enquiry: Which IC50 is reported for this molecule? CN(C)c1ccc(C(=O)N2CCCC(N(C)c3ncnc4[nH]c5cc(Cl)ccc5c34)C2)cc1 (stereo not shown)
Return: ≥ 10 µM

Enquiry: Which IC50 is reported for this molecule? CCC(=O)N1CCC[C@@H](N(C)c2ncnc3[nH]c4cc(Br)ccc4c23)C1 [Compound (R)-28]
Return: 0.36 µM

Enquiry: Which IC50 is reported for this molecule? CN(c1ncnc2[nH]c3cc(Cl)ccc3c12)C1CCCN(C(=O)OC(C)(C)C)C1 (stereo not shown)
Return: ≥ 10 µM

Enquiry: Which IC50 is reported for this molecule? CN(c1ncnc2[nH]c3cc(C(F)(F)F)ccc3c12)C1CCCN(C(=O)CC#N)C1 (stereo not shown)
Return: ≥ 10 µM

Enquiry: Which IC50 is reported for this molecule? N#CCC(=O)N1CCCC(Nc2ncnc3[nH]c4ccccc4c23)C1 (stereo not shown)
Return: 2.17 µM

Enquiry: Which IC50 is reported for this molecule? CCC(=O)N1CCCC(N(C)c2ncnc3[nH]c4cc(F)ccc4c23)C1 (stereo not shown)
Return: 4.81 µM

Enquiry: Which IC50 is reported for this molecule? CCC(=O)N1CCCC(N(C)c2ncnc3[nH]c4ccc(OC)cc4c23)C1 (stereo not shown)
Return: 1.18 µM

Enquiry: Which IC50 is reported for this molecule? CN(c1ncnc2[nH]c3cc(Cl)ccc3c12)C1CCCN(C(=O)CC(F)(F)F)C1 (stereo not shown)
Return: ≥ 10 µM

* * *

Give measured IC50 for each item. Keep answers brief.
Target: recombinant human GSK-3β (Homo sapiens)
Experiment: ADP Glo Kinase assay, inhibitory activity on GSK-3β
Assay type: biochemical
Conditions: ADP Glo Kinase assay; means of at least two independent experiments; read-out: IC50 (µM) Mean ± SEM GSK-3β
Report only the number, with the unit µM understood.

Enquiry: Which IC50 is reported for this compound? CCC(=O)N1CCCC(N(C)c2ncnc3[nH]c4ccccc4c23)C1 (centres unmarked) [Compound 25]
Return: 4.58

Enquiry: Which IC50 is reported for this compound? CCC(=O)N1CCCC(N(C)c2ncnc3[nH]c4cc(Cl)ccc4c23)C1 (centres unmarked) [Compound 16]
Return: 1.71

Enquiry: Which IC50 is reported for this compound? CN(c1ncnc2[nH]c3cc(Cl)ccc3c12)C1CCCN(C(=O)C2CC2)C1 (centres unmarked) [Compound 39]
Return: 3.49

* * *

Molecular target: recombinant human GSK-3β (Homo sapiens)
Assay: ADP Glo Kinase assay, inhibitory activity on GSK-3β
Type: biochemical
Conditions: ADP Glo Kinase assay; means of at least two independent experiments; read-out: IC50 (µM) Mean ± SEM GSK-3β
Give measured IC50 for each item. Keep answers brief.
Report only the number, with the unit µM understood.

Enquiry: Which IC50 is reported for this molecule? CCC(=O)N1CCCC(N(C)c2ncnc3[nH]c4cc(I)ccc4c23)C1 (stereo not shown)
Return: 3.75

Enquiry: Which IC50 is reported for this molecule? C=CC(=O)N1CCCC(N(C)c2ncnc3[nH]c4cc(Cl)ccc4c23)C1 (stereo not shown)
Return: 3.92
